# Experiment: Circular dichroism (CD) spectroscopy of linear and stapled peptides in water or 40% TFE/water (Example 3)
# Assay type: physicochemical
# Condition set: water
Each entry below carries its recorded [0]222 mean residue ellipticity at λ=222 nm.
Respond numerically; units are deg cm^2 dmol^−1 and should not be typed.

Substance: Ac-(cyclo-10-14, cyclo-15-19)-KIKHVVKLK[KENSE][EKSEK]SKLRSQLVKRK-NH2 [Compound 269]
Measurement: -3.99E+03

Substance: Ac-(cyclo-11-15, cyclo-16-20)-KIKHVVKLKD[ENSQK][ESEVK]KLRSQLVKRIK-NH2 [Compound 267]
Measurement: -6.14E+03

Substance: Ac-KIKHVVKLKDENSQLKSEVSKLRSQLVKRK-NH2 [Compound 265]
Measurement: -1.09E+04

In the following, a different substance is considered.
// query [0]222 mean residue ellipticity at λ=222 nm value for entry Ac-NLKQKIKHVVKLKDENSQLKSEVSKLRSQLVKRKQN-NH2 [Compound 275]
-3.35E+03

---

# Experiment: Circular dichroism (CD) spectroscopy of linear and stapled peptides in water or 40% TFE/water (Example 3)
# Type: physicochemical
# Condition set: λ = 222 nm; in 40% TFE/water
Bridges are numbered along the chain shown (N, C = ends).
Each entry below carries its recorded [0]222 mean residue ellipticity.
Respond numerically; units are deg cm^2 dmol^−1 and should not be typed.

Substance: Ac-(cyclo-8,12)-NLKQKIK[EVVKK]KDE-NH2 (Ac-NLKQKIKEVVKKKDE-NH2; lactam 8-12; SMILES CC[C@H](C)[C@H](NC(=O)[C@H](CCCCN)NC(=O)[C@H](CCC(N)=O)NC(=O)[C@H](CCCCN)NC(=O)[C@H](CC(C)C)NC(=O)[C@H](CC(N)=O)NC(C)=O)C(=O)N[C@@H](CCCCN)C(=O)N[C@H]1CCC(=O)NCCCC[C@@H](C(=O)N[C@@H](CCCCN)C(=O)N[C@@H](CC(=O)O)C(=O)N[C@@H](CCC(=O)O)C(N)=O)NC(=O)[C@H](CCCCN)NC(=O)[C@H](C(C)C)NC(=O)[C@H](C(C)C)NC1=O) [Compound 161]
Endpoint label: [0]222 mean residue ellipticity
Measurement: -1.60E+04

In the following, a different substance is considered.
// query [0]222 mean residue ellipticity value for entry Ac-(cyclo-6,10)-VSKLR[EQLVK]RKQN-NH2 (Ac-VSKLREQLVKRKQN-NH2; lactam 6-10; SMILES CC(=O)N[C@H](C(=O)N[C@@H](CO)C(=O)N[C@@H](CCCCN)C(=O)N[C@@H](CC(C)C)C(=O)N[C@@H](CCCNC(=N)N)C(=O)N[C@H]1CCC(=O)NCCCC[C@@H](C(=O)N[C@@H](CCCNC(=N)N)C(=O)N[C@@H](CCCCN)C(=O)N[C@@H](CCC(N)=O)C(=O)N[C@@H](CC(N)=O)C(N)=O)NC(=O)[C@H](C(C)C)NC(=O)[C@H](CC(C)C)NC(=O)[C@H](CCC(N)=O)NC1=O)C(C)C) [Compound 152]
-1.19E+04

---

# Experiment: Circular dichroism (CD) spectroscopy of linear and stapled peptides in water or 40% TFE/water (Example 3)
# Type: physicochemical
# Condition set: as repeated in tables 16, 18, 20
Bridges are numbered along the chain shown (N, C = ends).
Values of [θ]222/[θ]208 ratio of ellipticities greater than or equal to 0.2 map to MET; values below map to NOT MET.

Check this substance for [θ]222/[θ]208 ratio of ellipticities at or above 0.2: Ac-(cyclo-10-14, cyclo-15-19)-KIKHVVKLK[KENSE][EKSEK]SKLRSQLVKRK-NH2 [Compound 269]
MET

Check this substance for [θ]222/[θ]208 ratio of ellipticities at or above 0.2: Ac-(cyclo-7,11)-VSKLRS[ELVKK]KQN-NH2 (Ac-VSKLRSELVKKKQN-NH2; lactam 7-11; SMILES CC(=O)N[C@H](C(=O)N[C@@H](CO)C(=O)N[C@@H](CCCCN)C(=O)N[C@@H](CC(C)C)C(=O)N[C@@H](CCCNC(=N)N)C(=O)N[C@@H](CO)C(=O)N[C@H]1CCC(=O)NCCCC[C@@H](C(=O)N[C@@H](CCCCN)C(=O)N[C@@H](CCC(N)=O)C(=O)N[C@@H](CC(N)=O)C(N)=O)NC(=O)[C@H](CCCCN)NC(=O)[C@H](C(C)C)NC(=O)[C@H](CC(C)C)NC1=O)C(C)C) [Compound 153]
MET

Check this substance for [θ]222/[θ]208 ratio of ellipticities at or above 0.2: Ac-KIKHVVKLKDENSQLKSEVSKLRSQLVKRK-NH2 [Compound 265]
MET

Check this substance for [θ]222/[θ]208 ratio of ellipticities at or above 0.2: Ac-NLKQKIKHVVKLKDE-NH2 [Compound 156]
NOT MET

Check this substance for [θ]222/[θ]208 ratio of ellipticities at or above 0.2: Ac-VSKLRSQLVKRKQN-NH2 [Compound 132]
NOT MET

Check this substance for [θ]222/[θ]208 ratio of ellipticities at or above 0.2: Ac-(cyclo-8,12)-NLKQKIK[EVVKK]KDE-NH2 (Ac-NLKQKIKEVVKKKDE-NH2; lactam 8-12; SMILES CC[C@H](C)[C@H](NC(=O)[C@H](CCCCN)NC(=O)[C@H](CCC(N)=O)NC(=O)[C@H](CCCCN)NC(=O)[C@H](CC(C)C)NC(=O)[C@H](CC(N)=O)NC(C)=O)C(=O)N[C@@H](CCCCN)C(=O)N[C@H]1CCC(=O)NCCCC[C@@H](C(=O)N[C@@H](CCCCN)C(=O)N[C@@H](CC(=O)O)C(=O)N[C@@H](CCC(=O)O)C(N)=O)NC(=O)[C@H](CCCCN)NC(=O)[C@H](C(C)C)NC(=O)[C@H](C(C)C)NC1=O) [Compound 161]
MET

Check this substance for [θ]222/[θ]208 ratio of ellipticities at or above 0.2: Ac-(cyclo-6,10)-VSKLR[EQLVK]RKQN-NH2 (Ac-VSKLREQLVKRKQN-NH2; lactam 6-10; SMILES CC(=O)N[C@H](C(=O)N[C@@H](CO)C(=O)N[C@@H](CCCCN)C(=O)N[C@@H](CC(C)C)C(=O)N[C@@H](CCCNC(=N)N)C(=O)N[C@H]1CCC(=O)NCCCC[C@@H](C(=O)N[C@@H](CCCNC(=N)N)C(=O)N[C@@H](CCCCN)C(=O)N[C@@H](CCC(N)=O)C(=O)N[C@@H](CC(N)=O)C(N)=O)NC(=O)[C@H](C(C)C)NC(=O)[C@H](CC(C)C)NC(=O)[C@H](CCC(N)=O)NC1=O)C(C)C) [Compound 152]
MET
